- Test system: 485368-065-R3-J5-PDC spheroids with HUVEC/MSC, viability
- procedureDetails: Anticancer human tumor 485368-065-R3-J5-PDC patient-derived pancreatic carcinoma cell line growth inhibition [RAS]
- assaySetup: curve of first compound; second compound 0.1 µM
readoutKind: IC50 (nM)
Give bare numbers, in nM.

Example molecules with recorded IC50:
>  <molecule>
CC1(C)CCC(Nc2ncc(C(F)(F)F)c(-c3c[nH]c4c(P(C)(C)=O)c(C#N)ccc34)n2)CN1 (stereo not given) + C=CC(=O)N1CCN(c2nc(OCC3CCCN3C)nc3c(F)c(-c4nc(N)cc(C)c4C(F)(F)F)c(Cl)cc23)C(C)C1

>  <unitTag>
nM

>  <readoutNumber>
3.95

$$$$
>  <molecule>
Nc1ccn(C2OC(CO)C(O)C2(F)F)c(=O)n1 (stereo not given) + C#Cc1c(F)ccc2cc(O)cc(-c3ncc4c(N5CC6CCC(C5)N6)nc(OCC56CCCN5CC(F)C6)nc4c3F)c12

>  <unitTag>
nM

>  <readoutNumber>
6.3

$$$$

Name the recorded IC50 of the molecule listed here: CC1(C)CCC(Nc2ncc(C(F)(F)F)c(-c3c[nH]c4c(P(C)(C)=O)c(C#N)ccc34)n2)CN1 (stereo not given) + C#Cc1c(F)ccc2cc(O)cc(-c3ncc4c(N5CC6CCC(C5)N6)nc(OCC56CCCN5CC(F)C6)nc4c3F)c12
3.83

====

Please respond with reported viability, T/C for every item in the list.
- Test system: 485368-065-R3-J5-PDC spheroids with HUVEC/MSC, viability
- procedureDetails: Anticancer human tumor 485368-065-R3-J5-PDC cell line growth inhibition [RAS];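 further: spheroids exposed to agents for seven days before readout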
- assaySetup: second compound 1 µM; first compound 0.1 µM; stronger effect = lower value
Give bare numbers, in %.

>  <molecule>
CC1(O)CCCC1n1c(=O)c(C(F)F)cc2cnc(NC3CCN(S(C)(=O)=O)CC3)nc21 (stereo not drawn) + C=CC(=O)N1CCN(c2nc(OCC3CCCN3C)nc3c(F)c(-c4nc(N)cc(C)c4C(F)(F)F)c(Cl)cc23)C(C)C1

>  <viability, T/C / %>
60

$$$$
>  <molecule>
CCC(CC)c1cc(NC2CCC(N)C2)n2nccc2n1 (stereo not drawn) + C#Cc1c(F)ccc2cc(O)cc(-c3ncc4c(N5CC6CCC(C5)N6)nc(OCC56CCCN5CC(F)C6)nc4c3F)c12

>  <viability, T/C / %>
109

$$$$

Name the recorded viability, T/C of the molecule listed here: Nc1ccn(C2OC(CO)C(O)C2(F)F)c(=O)n1 (stereo not drawn) + C=CC(=O)N1CCN(c2nc(OCC3CCCN3C)nc3c(F)c(-c4nc(N)cc(C)c4C(F)(F)F)c(Cl)cc23)C(C)C1
9.69

====

- Tested on: 485368-065-R3-J5-PDC spheroids with HUVEC/MSC, viability
- procedureDetails: Anticancer human tumor 485368-065-R3-J5-PDC cell line growth inhibition [RAS];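 further: spheroids exposed to agents for seven days before readout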
- assaySetup: second compound 0.00316 µM; first compound 1 µM; stronger effect = lower value
readoutKind: viability, T/C (%)
One number for each entry, in %.

Go through the items and report each one's viability, T/C.
1. Nc1ccn(C2OC(CO)C(O)C2(F)F)c(=O)n1 (stereo not given) + C=CC(=O)N1CCN(c2nc(OCC3CCCN3C)nc3c(F)c(-c4nc(N)cc(C)c4C(F)(F)F)c(Cl)cc23)C(C)C1
2. C=CC(=O)Nc1cc(Nc2nccc(-c3cn(C)c4ccccc34)n2)c(OC)cc1N(C)CCN(C)C + C=CC(=O)N1CCN(c2nc(OCC3CCCN3C)nc3c(F)c(-c4nc(N)cc(C)c4C(F)(F)F)c(Cl)cc23)C(C)C1

[10.4, 97.1]

Go through the items and report each one's viability, T/C.
1. Cc1nc(N2CCC3(CC2)COC(C)C3N)c(CO)nc1Sc1ccnc(N)c1Cl (stereo not given) + C=CC(=O)N1CCN(c2nc(OCC3CCCN3C)nc3c(F)c(-c4nc(N)cc(C)c4C(F)(F)F)c(Cl)cc23)C(C)C1
2. O=C(c1ccc(F)c(F)c1Nc1ccc(I)cc1F)N1CC(O)([C@@H]2CCCCN2)C1 + C=CC(=O)N1CCN(c2nc(OCC3CCCN3C)nc3c(F)c(-c4nc(N)cc(C)c4C(F)(F)F)c(Cl)cc23)C(C)C1
3. CC(Nc1ccc2c(c1)OCCn1cc(N3C(=O)OCC3C(F)F)nc1-2)C(N)=O (stereo not given) + C=CC(=O)N1CCN(c2nc(OCC3CCCN3C)nc3c(F)c(-c4nc(N)cc(C)c4C(F)(F)F)c(Cl)cc23)C(C)C1

68.2
8.78
75.4

====

- Test system: 485368-065-R3-J5-PDC spheroids with HUVEC/MSC, viability
- procedureDetails: Anticancer human tumor 485368-065-R3-J5-PDC cell line growth inhibition [RAS]; active = viability on the fitted dose curve at most 10% of control; inactive = the rest;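 further: spheroids exposed to agents for seven days before readout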
- assaySetup: second compound 0.03 µM; first compound 0.0949 µM
- Description: RAS pathway inhibitors in Combinations in Complex Spheroids A high-throughput screen of multi-cell type tumor spheroids was designed to identify active combinations of RAS pathway inhibitors and targeted small molecules. Complex spheroids include a stromal component modeled by human endothelial cells (HUVEC) and fibroblasts modeled by human mesenchymal stem cells (MSCs). […] Compounds. […] If the clinical Cmax for an agent had not been determined, the highest concentration tested was 10 microM. […]
Please state which outcome applies, choosing from T = active, F = inactive

>  <molecule>
CC1(C)CCC(Nc2ncc(C(F)(F)F)c(-c3c[nH]c4c(P(C)(C)=O)c(C#N)ccc34)n2)CN1 (centres undefined) + CCn1c(-c2cccnc2C(C)OC)c2c3cc(ccc31)N1CCOC(CC(NC(=O)C(C(C)C)N(C)C(=O)C3(F)CCN(C(=O)C#CC(C)(C)N(C)C)CC3)C(=O)N3CCCC(N3)C(=O)OCC(C)(C)C2)C1

>  <answerLabel>
F

$$$$
>  <molecule>
CCc1c2c(nc3ccc(O)cc13)-c1cc3c(c(=O)n1C2)COC(=O)[C@]3(O)CC + CCn1c(-c2cc(N3CCN(C)CC3)cnc2C(C)OC)c2c3cc(ccc31)-c1csc(n1)CC(NC(=O)C1CC1C)C(=O)N1CCCC(N1)C(=O)OCC(C)(C)C2

>  <answerLabel>
T

$$$$
>  <molecule>
CC1(C)CCC(Nc2ncc(C(F)(F)F)c(-c3c[nH]c4c(P(C)(C)=O)c(C#N)ccc34)n2)CN1 (centres undefined) + CCn1c(-c2cc(N3CCN(C)CC3)cnc2C(C)OC)c2c3cc(ccc31)-c1csc(n1)CC(NC(=O)C1CC1C)C(=O)N1CCCC(N1)C(=O)OCC(C)(C)C2

>  <answerLabel>
F

$$$$

Hi, do you know how CCc1c2c(nc3ccc(O)cc13)-c1cc3c(c(=O)n1C2)COC(=O)[C@]3(O)CC + CCn1c(-c2cccnc2C(C)OC)c2c3cc(ccc31)N1CCOC(CC(NC(=O)C(C(C)C)N(C)C(=O)C3(F)CCN(C(=O)C#CC(C)(C)N(C)C)CC3)C(=O)N3CCCC(N3)C(=O)OCC(C)(C)C2)C1 came out in this test?
T

====

- Tested on: 485368-065-R3-J5-PDC spheroids with HUVEC/MSC, viability
- procedureDetails: Anticancer human tumor 485368-065-R3-J5-PDC cell line growth inhibition [RAS];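 further: spheroids exposed to agents for seven days before readout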
- assaySetup: second compound 1 µM; first compound 10 µM; stronger effect = lower value
Please respond with reported viability, T/C for every item in the list.
Give bare numbers, in %.

>  <molecule>
C[C@@H](NC(=O)c1ncnc(N)c1Cl)c1ncc(C(=O)Nc2cc(C(F)(F)F)c(Cl)cn2)s1 + C#Cc1c(F)ccc2cc(O)cc(-c3ncc4c(N5CC6CCC(C5)N6)nc(OCC56CCCN5CC(F)C6)nc4c3F)c12

>  <viability, T/C, %>
69.9

$$$$
>  <molecule>
CC(Nc1ccc2c(c1)OCCn1cc(N3C(=O)OCC3C(F)F)nc1-2)C(N)=O (centres undefined) + C#Cc1c(F)ccc2cc(O)cc(-c3ncc4c(N5CC6CCC(C5)N6)nc(OCC56CCCN5CC(F)C6)nc4c3F)c12

>  <viability, T/C, %>
51.5

$$$$
>  <molecule>
CC(Nc1ccc2c(c1)OCCn1cc(N3C(=O)OCC3C(F)F)nc1-2)C(N)=O (centres undefined) + C=CC(=O)N1CCN(c2nc(OCC3CCCN3C)nc3c(F)c(-c4nc(N)cc(C)c4C(F)(F)F)c(Cl)cc23)C(C)C1

>  <viability, T/C, %>
41.3

$$$$

Name the recorded viability, T/C of the molecule listed here: CC(=O)OC12COC1CC(O)C1(C)C(=O)C(O)C3=C(C)C(OC(=O)C(O)C(NC(=O)OC(C)(C)C)c4ccccc4)CC(O)(C(OC(=O)c4ccccc4)C21)C3(C)C (centres undefined) + C=CC(=O)N1CCN(c2nc(OCC3CCCN3C)nc3c(F)c(-c4nc(N)cc(C)c4C(F)(F)F)c(Cl)cc23)C(C)C1
23.5
